assay: NCI Yeast Anticancer Drug Screen. Data for the mlh1 rad18 strain (AID 175); conditions: S. cerevisiae mlh1 rad18 strain growth inhibition; at 50.0 µM; hits give high values
Compounds without any hit were thinned out: in the full panel of roughly 79,000, 15% have a hit.
reported_endpoint: growth inhibition (%)
Kindly provide the numeric value in % only, without the unit symbol.

Problem: For the compound shown here, "O=C(OCc1c(-c2ccccc2)nn(-c2ccccc2)c1COC(=O)Oc1ccccc1)Oc1ccccc1" , give the reported growth inhibition.
Result: 10.2

Problem: Please answer likewise for "COc1ccc(-n2c(=O)c(N=Nc3ccc(Cl)cc3)c(O)n(-c3ccc(I)cc3)c2=S)cc1"
Result: 22.4

Problem: Please answer likewise for COc1nc(NC2OCC(O)C(O)C2O)c(NC2OCC(O)C(O)C2O)c(=O)n1C (stereo not given)
Result: -12.2

Problem: Please answer likewise for "O=C(Nc1cc(Cl)c(I)c(Cl)c1)C(F)(F)F"
Result: 97.5

Problem: Please answer likewise for "Cc1[nH]ccc(=O)c1OC(=O)C12CC3CC(CC(C3)C1)C2"
Result: 23

Problem: Please answer likewise for "CCN(CCO)CC(=O)c1cc(Cl)ccc1OC"
Result: 19.4

Problem: Please answer likewise for "C[C@@]1(NC(=O)Cc2ccccc2)C(=O)N2CCS[C@@]21c1ccccc1"
Result: 1.95

Problem: Please answer likewise for "COC(=O)CCNc1c(OC)ccc2ccccc12"
Result: -5

Problem: Please answer likewise for "COc1ccc2cc(NC(=O)N/N=C\c3ccc(Cl)cc3)ccc2c1"
Result: 30.4

Problem: Please answer likewise for COc1ccccc1C1CCCCC1OS(=O)(=O)c1ccc(C)cc1 (stereo not given)
Result: -9.8

Problem: Please answer likewise for "O=[N+]([O-])c1ccc(N/N=C/CCCCO)c([N+](=O)[O-])c1"
Result: -5.8

Problem: Please answer likewise for COc1cccc2c1[C@@]1(C)C3C(=O)OC(C)(c4ccccc43)[C@@]1(C)C2=O (stereo not given in full)
Result: 9.35

Problem: Please answer likewise for "CC1(C)C(=O)N=C(N)N1C(=O)OCc1ccccc1"
Result: -17.5

Problem: Please answer likewise for "CC(C)(C)OC(=O)NCC(O)CNC(=O)OC(C)(C)C"
Result: -24.6

Problem: Please answer likewise for CC(N(C)Cc1ccccc1)C(C)(O)c1ccccc1 (stereo not given)
Result: 30.8

Problem: Please answer likewise for "O=[N+]([O-])C(=C(N1CCOCC1)N1CCOCC1)/C(Cl)=C(\Cl)Br"
Result: 2.55

Problem: Please answer likewise for O=C(O)C(O)(C1CCCCC1)C1CCC2CCC3CCCC1C32 (stereo not given)
Result: 14.8

Problem: Please answer likewise for "COC(=O)/C=C(\C(=O)c1ccccc1)c1ccccc1"
Result: 11.9

Problem: Please answer likewise for "O=C(O)c1ccc(O)c2ccccc12"
Result: -21.9

Problem: Please answer likewise for "CCOP(=O)(OCC)/C(C#N)=C/c1ccc2ccccc2c1"
Result: -13.6

Problem: Please answer likewise for "O=C1CCN(Cc2ccco2)C(=O)N1"
Result: 10.2

Problem: Please answer likewise for "Cc1[nH]c(=O)[nH]c(=O)c1-n1nnc2ccccc2c1=O"
Result: 6.8

Problem: Please answer likewise for "N#C/C(=C\c1ccccc1)C(=O)Nc1ccccc1"
Result: 22.6

Problem: Please answer likewise for CC[N+](C)(CC)CCOC(=O)C(C1=CCCCC1)C1(O)CCCCC1 (stereo not given)
Result: -16.6

Problem: Please answer likewise for O=P1(C(c2ccccc2)c2ccccc2)OC2CC(Cl)CC(C2)O1 (stereo not given)
Result: -11.9

Problem: Please answer likewise for N#CC(c1ccccc1)C(C#N)c1ccc(Cl)cc1 (stereo not given)
Result: 3.8

Problem: Please answer likewise for "COc1cc(/C=N\NS(=O)(=O)c2ccc(N)cc2)ccc1O"
Result: 17.1

Problem: Please answer likewise for "O=c1[nH]cc(CS)c(=O)[nH]1"
Result: 14.5

Problem: Please answer likewise for "Cc1nc(N(CCO)CCO)c2sc(=S)n(-c3ccccc3)c2n1"
Result: -45.8

Problem: Please answer likewise for "O=C(O)c1ccccc1P(=O)(O)c1ccccc1"
Result: -31.2

* * *

test: NCI Yeast Anticancer Drug Screen. Data for the cln2 rad14 strain (AID 165);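 note: 0% = growth equal to vehicle treated cultures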; settings: S. cerevisiae cln2 rad14 strain, at 50.0 µM, hits give high values
The panel holds about 79,000 compounds, 15% with a hit somewhere; the sample as a whole holds those more often.
reported_endpoint: growth inhibition (%)
Kindly provide the numeric value in % only, without the unit symbol.

Problem: For the molecule shown here, COc1ccc(C(=O)CC(c2ccccc2)[C@H]2C(c3ccc(OC)cc3)=Nc3c(nc(SC)n(C)c3=O)NC2c2ccccc2)cc1 (stereo partly drawn) , give the reported growth inhibition.
Result: 12.7

Problem: Please answer likewise for "C=C1C(=O)O[C@H]2[C@H]1CC(=O)/C(C)=C/CC[C@@]1(C)O[C@@H]21"
Result: 21.4

Problem: Please answer likewise for NCCNC(=O)CCC(CN(CC(=O)O)CC(=O)O)N(CC(=O)O)CC(=O)O (stereo not drawn)
Result: 57

Problem: Please answer likewise for CSc1ncnc2c1ccn2C1OC(COP(=O)(O)O)C(O)C1O (stereo not drawn)
Result: -2.45

Problem: Please answer likewise for "O=C(O)/C=C/c1ccccc1C(=O)O"
Result: -13.2

Problem: Please answer likewise for "O=C1c2ccccc2-c2nnc(-c3ccc(Cl)cc3)cc21"
Result: -16.9

Problem: Please answer likewise for "CCOC(=O)N/N=C(/OCC)c1ccccc1"
Result: 5.8

Problem: Please answer likewise for "CC(C)(C)N(O)c1ccc(P(=O)(c2ccccc2)c2ccccc2)cc1"
Result: -4.7

Problem: Please answer likewise for "O=C(Oc1ccc(-c2ccccc2)cc1)c1cccc([N+](=O)[O-])c1"
Result: -11.4

Problem: Please answer likewise for O=C(CC1CCCCC1)OCC1CCCO1 (stereo not drawn)
Result: -4.15

Problem: Please answer likewise for "CC(C)(Oc1ccc(Cl)cc1)C(=O)NC1CC(C)(C)N(O)C(C)(C)C1"
Result: -48.5

Problem: Please answer likewise for "O=S1(=O)C=C(c2ccccc2)C1"
Result: -33.4

Problem: Please answer likewise for "O=C1CCSc2nc(-c3ccc4c(c3)OCO4)nn21"
Result: 15.2

Problem: Please answer likewise for CC(C)CC(NS(=O)(=O)Cc1ccccc1)C(=O)NN (stereo not drawn)
Result: 11.2

Problem: Please answer likewise for CC(=O)O[C@]12CCCC1C1(O)C(O)CCCC12 (stereo partly drawn)
Result: -9.55

Problem: Please answer likewise for O=COC(Cc1ccccc1)c1ccc2c(c1)OCO2 (stereo not drawn)
Result: -7.2

Problem: Please answer likewise for C=CC(CCCC(C=C)OC(C)=O)OC(C)=O (stereo not drawn)
Result: -18.1

Problem: Please answer likewise for "CS(=O)(=O)c1[nH]nc2[nH]c(=O)[nH]c(=O)c12"
Result: -4.7

* * *

experiment: NCI Yeast Anticancer Drug Screen. Data for the cln2 rad14 strain (AID 165);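 note: 0% = growth equal to vehicle treated cultures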; conditions: S. cerevisiae cln2 rad14 strain, at 50.0 µM, hits give high values
This is part of a sample that, as a whole, favours compounds with a hit. Of some 79,000 tested, about 15% had one in any assay.
Hi there, I'd appreciate the recorded growth inhibition for every entry that follows.
Kindly provide the numeric value in % only, without the unit symbol.

Problem: For the molecule shown here, "[O-][n+]1cc(N=Nc2ccc(Cl)cc2)nn1-c1ccc(Cl)cc1" , give the reported growth inhibition.
Result: 9.85

Problem: Please answer likewise for O=S(=O)(c1ccccc1)C1C2CCC(O2)C1S(=O)(=O)c1ccccc1 (stereo not drawn)
Result: 30.9

Problem: Please answer likewise for "COc1ccc(CNc2nc3ccc(C(F)(F)F)cc3nc2-c2ccccc2)cc1OC"
Result: 6.45

Problem: Please answer likewise for C=C(C)C(=O)O[C@H]1C/C(CO)=C/CCC(=C)C(OC(C)=O)[C@H]2OC(=O)C(=C)[C@H]12 (stereo partly drawn)
Result: 6.85

Problem: Please answer likewise for COc1ccc2c3c([nH]c2c1)C1CC2C(CC(O)C(OC)C2C(=O)O)CN1CC3 (stereo not drawn)
Result: 15.2

Problem: Please answer likewise for "CCOC(=O)COc1c(C)cccc1Cl"
Result: -28.9

Problem: Please answer likewise for "O=C(O)c1cc(-c2c(Cl)cccc2Cl)nc2cc3ccccc3cc12"
Result: 21.4

Problem: Please answer likewise for COC(=O)C1(O)C(=O)NC2=C1C(=O)c1ccccc1C2=O (stereo not drawn)
Result: -8.7

Problem: Please answer likewise for "CCOC(=O)c1ccc(NC(=O)c2cccc(Cl)c2)cc1"
Result: -5.45

Problem: Please answer likewise for "O=C(O)C1(C(=O)O)CCCCC1.[NH-]CC1(C[NH-])CCCCC1.[Pt+2]"
Result: 21.1

Problem: Please answer likewise for N#CC(c1ccc(Cl)cc1)c1ccc(N(CCO)CCO)cc1 (stereo not drawn)
Result: 5.85

Problem: Please answer likewise for "CC(=O)Nc1cc(Cl)cc2[nH]c(C)nc12"
Result: -0.25

Problem: Please answer likewise for "CC(=O)CC(=O)N1CCCCCC1"
Result: 11.8

Problem: Please answer likewise for "C[C@H](CCC(=O)O)[C@H]1CC[C@H]2[C@@H]3[C@@H](O)C[C@@H]4C[C@H](O)CC[C@]4(C)[C@H]3C[C@H](O)[C@]12C"
Result: -20.6

Problem: Please answer likewise for "CCCNc1nnnn1CCC"
Result: 4.25

Problem: Please answer likewise for "O=C(CCc1cc(-c2ccc(F)cc2)n[nH]1)N(Cc1ccccc1)Cc1ccccc1"
Result: 2.25

Problem: Please answer likewise for NC(=O)c1csc(C2O[C@@H](COP(=O)(O)OP(=O)(O)OC[C@H]3OC(n4cnc5c(N)ncnc54)[C@H](O)[C@@H]3O)[C@H](O)[C@@H]2O)n1 (stereo partly drawn)
Result: -37.5

Problem: Please answer likewise for "S=C(NCc1ccccc1)Nc1ncn[nH]1"
Result: -22.9
